assay: chemical genetic growth profiling, strain panel (AID 1159580);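 note: tested at 20 µM; growth read once vehicle control cultures reached saturation at 30 °C; 1 = growth at the plate median or of vehicle wells; lower values mean less growth of the strain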; details: S. cerevisiae deletion strains, growth OD, locus YNL307C, strain MCK1
Out of some 5,500 compounds screened, about 2,000 (36%) were called active. Roughly 18% stayed inconclusive and do not appear here. Cut-off read from the data, not from the text of the source: active = normalized growth mostly below about 0.91 (no sharp cut-off); inconclusive = no clear call, values can overlap the other calls; inactive = mostly above about 0.92. The list shows a part of the results.
Your response should consist of one outcome taken from class 1 = active, class 0 = inactive

*Q* // outcome(item) with item = CC(Cc1ccc(O)c(O)c1)C(C)Cc1ccc(O)c(O)c1 (stereo not drawn)
*A* class 1

*Q* // outcome(item) with item = CC(C)N(C(=O)SCC(Cl)=C(Cl)Cl)C(C)C
*A* class 0

*Q* // outcome(item) with item = Nc1ncnc2c1ncn2C1C[C@H](O)[C@@H](CO)O1 (stereo partly drawn)
*A* class 0

*Q* // outcome(item) with item = C/C=C/c1ccc2c(c1)OCO2
*A* class 0

*Q* // outcome(item) with item = Nc1ncn([C@@H]2O[C@H](CO)[C@@H](O)[C@H]2O)c(=O)n1
*A* class 0

*Q* // outcome(item) with item = Oc1c(Cl)cc(Cl)c2cccnc12
*A* class 1

*Q* // outcome(item) with item = O=c1[nH]c(=O)n(C2C[C@@H](O)[C@@H](CO)O2)cc1F (stereo partly drawn)
*A* class 0

*Q* // outcome(item) with item = CC(C)=CCC[C@](C)(O)C1CC=C(C)CC1 (stereo partly drawn)
*A* class 0

*Q* // outcome(item) with item = CC(=O)Nc1cc([As](=O)(O)O)ccc1O
*A* class 0

*Q* // outcome(item) with item = CO[C@H]1/C=C/O[C@@]2(C)Oc3c(C)c(O)c4c(O)c(c(/C=N/N5CCN(C)CC5)c(O)c4c3C2=O)NC(=O)/C(C)=C\C=C\C(C)[C@H](O)[C@@H](C)[C@@H](O)[C@@H](C)[C@@H](OC(C)=O)[C@@H]1C (stereo partly drawn)
*A* class 0

*Q* // outcome(item) with item = C=CC(C1=CC(=O)C=CC1=O)c1ccccc1 (stereo not drawn)
*A* class 1

*Q* // outcome(item) with item = CC(=O)OCC1(C)CCC2(C)CCC3(C)C4=CCc5c(cc(OC(C)=O)c(OC(C)=O)c5C)C4(C)CCC3(C)C2C1 (stereo not drawn)
*A* class 0

*Q* // outcome(item) with item = C=CC(C)(O)CC/C=C(\C)CCC=C(C)C (stereo not drawn)
*A* class 0

*Q* // outcome(item) with item = CCCC(C)C1(CC)C(=O)N=C(S)NC1=O (stereo not drawn)
*A* class 1

*Q* // outcome(item) with item = CCCCC1(COC(=O)CCC(=O)O)C(=O)N(c2ccccc2)N(c2ccccc2)C1=O
*A* class 0

*Q* // outcome(item) with item = Cc1occc(=O)c1O
*A* class 0

*Q* // outcome(item) with item = O=[N+]([O-])c1ccc(O)c([N+](=O)[O-])c1
*A* class 1

*Q* // outcome(item) with item = C=C[C@@H](C1=CC(=O)C(OC)=C(OC)C1=O)c1ccccc1
*A* class 1

*Q* // outcome(item) with item = O=[N+]([O-])c1cc([As](=O)(O)O)ccc1O
*A* class 1

*Q* // outcome(item) with item = CNC[C@@H](O)c1ccc(O)c(O)c1
*A* class 0

*Q* // outcome(item) with item = CCCc1occc(=O)c1/C=C/O
*A* class 0

*Q* // outcome(item) with item = Cc1c(O)c(O)cc2c1CC=C1[C@@]2(C)CC[C@@]2(C)C3C[C@](C)(C(=O)O)CC[C@]3(C)CC[C@]12C (stereo partly drawn)
*A* class 1

*Q* // outcome(item) with item = CCOP(=S)(OCC)SCn1c(=O)oc2cc(Cl)ccc21
*A* class 0
